- Target: B2 bradykinin receptor (Homo sapiens, UniProt P30411)
- Sequence (P30411 whole entry): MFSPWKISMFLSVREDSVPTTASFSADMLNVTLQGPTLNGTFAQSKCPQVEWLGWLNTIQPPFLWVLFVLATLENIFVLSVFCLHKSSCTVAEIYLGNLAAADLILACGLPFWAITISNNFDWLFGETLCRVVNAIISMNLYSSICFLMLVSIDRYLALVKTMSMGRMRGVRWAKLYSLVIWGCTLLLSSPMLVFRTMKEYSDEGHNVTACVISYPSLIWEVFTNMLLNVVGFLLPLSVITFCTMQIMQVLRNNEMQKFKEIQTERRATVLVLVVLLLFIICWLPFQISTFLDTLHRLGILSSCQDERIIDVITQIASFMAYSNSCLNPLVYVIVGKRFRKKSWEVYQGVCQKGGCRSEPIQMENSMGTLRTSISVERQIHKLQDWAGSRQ
- Assay remarks: Inhibition of the specific binding of [3H]BK to human recombinant Bradykinin receptor B2 expressed in CHO cells.
The label is satisfied for IC50 below 6 nM and not satisfied for IC50 equal to or exceeding 6 nM.

Compound structure	Class name
CNC(=O)c1ccc(/C=C/C(=O)NCC(=O)N(C)c2ccc(Cl)c(COc3cccc4ccc(C)nc34)c2)cc1	not satisfied
CC(=O)Nc1ccc(/C=C/C(=O)NCC(=O)Nc2ccc(Cl)c(COc3cccc4ccc(C)nc34)c2Cl)cn1	not satisfied
CNC(=O)c1ccc(/C=C/C(=O)NCc2ccccc2-c2ccc(C)c(COc3cccc4ccc(C)nc34)c2C)cc1	satisfied
CC(=O)Nc1ccc(/C=C/C(=O)NCc2cccn2-c2ccc(Cl)c(COc3cccc4ccc(C)nc34)c2Cl)cn1	satisfied
CNC(=O)c1ccc(/C=C/C(=O)Nc2cccc(-c3ccc(C)c(COc4cccc5ccc(C)nc45)c3C)c2)cc1	not satisfied
CNC(=O)c1ccc(/C=C/C(=O)NCc2sccc2-c2ccc(C)c(COc3cccc4ccc(C)nc34)c2C)cc1	satisfied
